# Reported conditions: [M+H]+; instrument: DT; stepped-field
Parameter collision cross section (N2): see the listing below.
Give the number; Å² is assumed, so skip it.

[
  {
    "Molecule": "CCc1cccc(C)c1N(C(=O)CCl)C(C)COC (centres undefined)",
    "collision cross section (N2) [Å²]": 161.46
  },
  {
    "Molecule": "CCNc1nc(Cl)nc(NC(C)C)n1",
    "collision cross section (N2) [Å²]": 150.74
  },
  {
    "Molecule": "NC(=O)CC[C@H](NC(=O)Cc1ccccc1)C(=O)O",
    "collision cross section (N2) [Å²]": 160.93
  },
  {
    "Molecule": "COc1ccc(-c2cc(=O)c3c(O)cc(O)cc3o2)cc1",
    "collision cross section (N2) [Å²]": 167.06
  },
  {
    "Molecule": "CCCCC/C=C\\C=C\\C(=O)CCCCCCCC(=O)O",
    "collision cross section (N2) [Å²]": 184.2
  },
  {
    "Molecule": "CCCCCCSC[C@H](NC(=O)CC[C@H](N)C(=O)O)C(=O)NCC(=O)O",
    "collision cross section (N2) [Å²]": 203.2
  }
]

Param item = `C[C@H]1O[C@@H](n2cnc3c(N)ncnc32)[C@H](O)[C@@H]1O` ; retrieve measured collision cross section (N2). 162.1

Same for Nc1ccc(S(N)(=O)=O)cc1 [Sulfanilamide] 156.07

Same again, this time with `NCCC(=O)N[C@@H](Cc1cnc[nH]1)C(=O)O` 152.18

Same for `C[N+](C)(C)CCOP(=O)(O)O` 138.54

---

# Reported conditions: [M+HCOO]-; instrument: DT; single field, calibrated with Agilent tune mix (Agilent)
Reported metric: collision cross section (N2) (Å²)
Numeric answer only, unit Å² assumed.

[
  {
    "Compound": "CCCCCCCCCCCCC=CC[C@@H](O)[C@H](COP(=O)([O-])OCC[N+](C)(C)C)NC(=O)CCCCCCCCCCCCCCCCC [SM(36:1)]",
    "collision cross section (N2), Å²": 286.4
  }
]

I have this compound here, CCCCCCCCCCCCC=CC[C@@H](O)[C@H](CO)NC(=O)CCCCCCCCCCCCCCCCCC [Cer(37:1)] , and I need its recorded collision cross section (N2). 258.9

For CCCCCC/C=C\CCCCCCCCCC(=O)OC[C@H](COP(=O)([O-])OCC[N+](C)(C)C)OC(=O)CCCCCCC/C=C\CCCCCC [PC(34:2)] then? 285.5

Then this compound: CCCCC/C=C\C/C=C\C/C=C\CCCCC(=O)OC[C@H](COP(=O)([O-])OCC[N+](C)(C)C)OC(=O)CCCCCCC/C=C\CCCCCCCC [PC(36:4)] 288.4

Param item: CCCCCCCCCCCCCCCCCCCCCCCC(=O)N[C@@H](CO[C@@H]1O[C@H](CO)[C@@H](O)C(O)C1O)[C@H](O)CCCCCCCCCCCCCCC (some centres undefined) [GlcCer(42:0)] 300.8

Same for CC/C=C\C/C=C\C/C=C\CCCCCCCC(=O)OC[C@H](COP(=O)([O-])OCC[N+](C)(C)C)OC(=O)CCCCCC/C=C\C/C=C\C/C=C\CCCCC [PC(38:6)] 291.9

And what about the compound CCCCCCCCCCCCCCCCCC(=O)N[C@@H](CO)[C@H](O)CCCCCCCCCCCCCCC [Cer(36:0)] ? 259

Cool, now CCCCCCCCCCCCCCCC(=O)OCC(O)COP(=O)([O-])OCC[N+](C)(C)C (centres undefined) [LPC(16:0)] 235

Next compound up: CCCCCCCCCCCCC=CC[C@@H](O)[C@H](COP(=O)([O-])OCC[N+](C)(C)C)NC(=O)CCCCCCCCCCCCCCC [SM(34:1)] 280.9
